Biological target: T1, full-length Sudan GP (GPFL) (Sudan virus (SUDV), UniProt Q7T9D9 33-650)
T1 construct: also called Sudan GPFL; GP(S)FL
T1 sequence: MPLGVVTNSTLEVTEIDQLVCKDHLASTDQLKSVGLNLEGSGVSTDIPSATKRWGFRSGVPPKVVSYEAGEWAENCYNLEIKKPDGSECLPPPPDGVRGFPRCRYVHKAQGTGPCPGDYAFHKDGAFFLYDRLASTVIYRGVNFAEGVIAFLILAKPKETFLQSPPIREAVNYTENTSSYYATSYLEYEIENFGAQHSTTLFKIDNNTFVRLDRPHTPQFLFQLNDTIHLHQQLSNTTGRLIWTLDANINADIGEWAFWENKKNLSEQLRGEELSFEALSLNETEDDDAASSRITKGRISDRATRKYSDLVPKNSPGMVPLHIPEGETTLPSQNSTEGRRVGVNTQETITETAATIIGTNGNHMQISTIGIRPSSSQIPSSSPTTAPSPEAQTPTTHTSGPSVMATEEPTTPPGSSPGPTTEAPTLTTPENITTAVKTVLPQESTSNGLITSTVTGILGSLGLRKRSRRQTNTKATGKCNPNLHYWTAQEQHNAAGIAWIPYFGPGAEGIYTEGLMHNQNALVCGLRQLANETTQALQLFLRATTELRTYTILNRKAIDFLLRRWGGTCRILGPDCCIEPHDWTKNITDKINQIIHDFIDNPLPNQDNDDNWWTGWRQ
Test: BLI, Fab, pH 5.3
assay-endpoint: koff (s⁻¹)

Fab generated from 233S (Fab, V domains shown) VH: EVQLVESGGGLGQPGGSLRLSCAASGFKFKIFGMNWVRQAPGKGLEWVSYISSRSSIIYYADSVKGRFTISRDDATNSLFLQMNSLRDEDTAMYYCVRDYNLIDFVWGSLFDYWGQGILVTVSS VL: AIRMTQSPSSLSASTGDSVTITCRASQNIASYLAWYQQIPGKAPKLLIYVASTLQSGVPSRFSGSGSGTDFTLTISSLQSEDFATYYCQQYYRYPPTFGQGTKVEIK
0.000358
Fab generated from 541S (Fab, V domains shown, also called 541S Fab) VH: QVQLVQSGAEVKKPGASVKVSCKASGYTFTNYAITWVRQAPGQGLEWMGWISAFNGQINYAQKFQGRVAMTTDTSTSTAYMELRSLRSDDTAVYYCARAPPMWFSGAKFDYWGQGTLVTVSS VL: QSVLTQPPSVSGTPGQRVTISCSGSSSNIGSNTVNWYQQLPGTAPKLLIYSNDQRPSGVPDRFSGSKSGTSASLAISGLRSEDEADYYCAAWDETLRRVFGGGTRLTVL
0.000322
Fab generated from 294S (Fab, V domains shown, also called 294S Fab) VH: QVQLQESGPGLVKPSQTLSLTCTVSGGSISSGGYHWSWIRQHPGKGLEWIGNIYYNGRTYYNPSLKSRVTISVDTSENEFSLKLSSVTAADTAVYYCARDRRRPRIGHDYGMDVWGQGTKVIVSS VL: DIQMTQSPSSLSASVGDRVTISCRASQSISNFLNWYQQKPGQAPKLLIYTASNLQSGVPSRFSGSGSGTDFTLTISSLQPEDFATYYCQQIYNTGMYSFGQGTKLEIK
0.000377
